# System: Bacteria
# METHOD DESCRIPTION: Antibacterial activity against Gram-positive bacteria incubated for 18 hrs by CLSI based broth dilution method
# Assay type: functional
Where a SMILES comes first, the peptide text is derived from it.
Listed molecules paired with reported MIC
Report only the number, with the unit µM understood.

Below, each entry is followed by its recorded MIC result.
MOLECULE: CC[C@H](C)[C@H](NC(=O)[C@H](CCCNC(=N)N)NC(=O)[C@H](CCCCN)NC(=O)[C@H](Cc1ccccc1)NC(=O)[C@H](Cc1ccccc1)NC(=O)CN)C(=O)N[C@@H](CCCNC(=N)N)C(=O)N[C@H](C(=O)N[C@@H](Cc1ccccc1)C(=O)N[C@@H](Cc1ccccc1)C(N)=O)[C@@H](C)O (H-GFFKRIRTFF-NH2)
SYSTEM UNDER TEST: Bacteria
MIC [µM]: 32
//
MOLECULE: C[C@@H](O)[C@H](NC(=O)[C@H](CCCCN)NC(=O)[C@H](Cc1c[nH]c2ccccc12)NC(=O)[C@H](CCCNC(=N)N)NC(=O)[C@H](CCCCN)NC(=O)[C@H](Cc1ccccc1)NC(=O)[C@H](Cc1ccccc1)NC(=O)CN)C(=O)N[C@@H](Cc1ccccc1)C(=O)N[C@@H](Cc1ccccc1)C(N)=O (H-GFFKRWKTFF-NH2)
SYSTEM UNDER TEST: Bacteria
MIC [µM]: 16

Shifting focus to the molecule that follows.
Entry C[C@@H](O)[C@H](NC(=O)[C@H](CCCCN)NC(=O)[C@H](Cc1c[nH]c2ccccc12)NC(=O)[C@H](CCCNC(=N)N)NC(=O)[C@H](CCCCN)NC(=O)[C@H](Cc1c[nH]c2ccccc12)NC(=O)[C@H](Cc1c[nH]c2ccccc12)NC(=O)CN)C(=O)N[C@@H](Cc1c[nH]c2ccccc12)C(=O)N[C@@H](Cc1c[nH]c2ccccc12)C(N)=O (H-GWWKRWKTWW-NH2) has what MIC?
6.7

---

# METHOD DESCRIPTION: Selectivity ratio of MHC10 for BALB/C mouse erythrocytes to MIC for bacteria
# Assay type: toxicity
Where a SMILES comes first, the peptide text is derived from it.
READOUT TYPE: selectivity ratio
Provide a numeric answer; units are not to be included.

COMPOUND: N=C(N)NCCC[C@H](NC(=O)[C@H](CCCNC(=N)N)NC(=O)[C@H](Cc1c[nH]c2ccccc12)NC(=O)[C@H](CCCNC(=N)N)NC(=O)[C@H](CCCNC(=N)N)NC(=O)[C@H](Cc1c[nH]c2ccccc12)NC(=O)[C@H](Cc1c[nH]c2ccccc12)NC(=O)[C@@H](N)CCCNC(=N)N)C(=O)N[C@@H](Cc1c[nH]c2ccccc12)C(=O)N[C@@H](Cc1c[nH]c2ccccc12)C(N)=O (H-RWWRRWRRWW-NH2)
EXPERIMENTAL VALUE: 2.5
//
COMPOUND: CC(C)C[C@H](NC(=O)[C@H](Cc1ccccc1)NC(=O)CN)C(=O)N[C@@H](CCCCN)C(=O)N[C@@H](CCCNC(=N)N)C(=O)N[C@@H](Cc1ccccc1)C(=O)N[C@@H](CCCCN)C(=O)N[C@H](C(=O)N[C@@H](CC(C)C)C(=O)N[C@@H](Cc1ccccc1)C(N)=O)[C@@H](C)O (H-GFLKRFKTLF-NH2)
EXPERIMENTAL VALUE: 7.78
//
COMPOUND: CC(C)C[C@H](NC(=O)[C@H](CC(C)C)NC(=O)[C@@H](NC(=O)[C@H](CCCCN)NC(=O)[C@H](Cc1ccccc1)NC(=O)[C@H](CCCNC(=N)N)NC(=O)[C@H](CCCCN)NC(=O)[C@H](CC(C)C)NC(=O)[C@H](CC(C)C)NC(=O)CN)[C@@H](C)O)C(N)=O (H-GLLKRFKTLL-NH2)
EXPERIMENTAL VALUE: 7.34

Shifting focus to the compound that follows.
Entry CC(C)C[C@H](NC(=O)CN)C(=O)N[C@@H](CC(C)C)C(=O)N[C@@H](CCCCN)C(=O)N[C@@H](CCCNC(=N)N)C(=O)N[C@@H](CC(C)C)C(=O)N[C@@H](CCCCN)C(=O)N[C@H](C(=O)N[C@@H](CC(C)C)C(=O)N[C@@H](C)C(N)=O)[C@@H](C)O (H-GLLKRLKTLA-NH2) has what selectivity ratio?
3.08

---

Listed compounds paired with reported MIC
# Test system: Bacteria
# METHOD DESCRIPTION: Antibacterial activity against Gram-positive bacteria incubated for 18 hrs by CLSI based broth dilution method
# Assay type: functional
Where a SMILES comes first, the peptide text is derived from it.
Report only the number, with the unit µM understood.

COMPOUND: CC[C@H](C)[C@H](NC(=O)CN)C(=O)N[C@@H](CCCNC(=N)N)C(=O)N[C@@H](Cc1c[nH]c2ccccc12)C(=O)N[C@@H](CCCCN)C(=O)N[C@@H](Cc1ccccc1)C(=O)N[C@@H](Cc1c[nH]c2ccccc12)C(=O)N[C@@H](CCCCN)C(=O)N[C@@H](Cc1ccccc1)C(=O)N[C@H](C(N)=O)[C@@H](C)O (H-GIRWKFWKFT-NH2)
MIC / µM: 76.1

Entry CC(C)C[C@H](NC(=O)[C@H](CC(C)C)NC(=O)[C@@H](NC(=O)[C@H](CCCCN)NC(=O)[C@H](Cc1c[nH]c2ccccc12)NC(=O)[C@H](CCCNC(=N)N)NC(=O)[C@H](CCCCN)NC(=O)[C@H](CC(C)C)NC(=O)[C@H](CC(C)C)NC(=O)CN)[C@@H](C)O)C(N)=O (H-GLLKRWKTLL-NH2) has what MIC?
90.5

Entry CC[C@H](C)[C@H](NC(=O)[C@H](CCCNC(=N)N)NC(=O)[C@H](CCCNC(=N)N)NC(=O)[C@H](Cc1ccccc1)NC(=O)[C@H](Cc1ccccc1)NC(=O)CN)C(=O)N[C@@H](CCCCN)C(=O)N[C@H](C(=O)N[C@@H](Cc1ccccc1)C(=O)N[C@@H](Cc1ccccc1)C(N)=O)[C@@H](C)O (H-GFFRRIKTFF-NH2) has what MIC?
32

---

# METHOD DESCRIPTION: Selectivity ratio of MHC10 for BALB/C mouse erythrocytes to MIC for fungi
# Format: toxicity
Where a SMILES comes first, the peptide text is derived from it. Bridges are numbered along the chain shown (N, C = ends). [ ]: non-standard residue; d: D form. The star is where a group is joined. X1 = CC[C@H](C)CCCCC(=O)*; Dab = NCC[C@H](N)C(=O)O
READOUT TYPE: selectivity ratio
Provide a numeric answer; units are not to be included.

Below, each entry is followed by its recorded selectivity ratio result.
COMPOUND: CC(C)C[C@H](NC(=O)CN)C(=O)N[C@@H](Cc1c[nH]c2ccccc12)C(=O)N[C@@H](CCCCN)C(=O)N[C@@H](CCCNC(=N)N)C(=O)N[C@@H](Cc1c[nH]c2ccccc12)C(=O)N[C@@H](CCCCN)C(=O)N[C@@H](CCCCN)C(=O)N[C@@H](Cc1ccccc1)C(=O)N[C@@H](Cc1c[nH]c2ccccc12)C(N)=O (H-GLWKRWKKFW-NH2)
selectivity ratio: 8.06
//
COMPOUND: CC[C@H](C)CCCCC(=O)N[C@@H](CCN)C(=O)N[C@H](C(=O)N[C@@H](CCN)C(=O)N[C@H]1CCNC(=O)[C@H]([C@@H](C)O)NC(=O)[C@H](CCN)NC(=O)[C@H](CCN)NC(=O)[C@H](CC(C)C)NC(=O)[C@@H](Cc2ccccc2)NC(=O)[C@H](CCN)NC1=O)[C@@H](C)O (X1-[Dab]T[Dab][Dab][Dab][dF]L[Dab][Dab]T; lactam 4-C)
selectivity ratio: 4150

Entry CC[C@H](C)[C@H](NC(=O)[C@H](CCCNC(=N)N)NC(=O)[C@H](CCCCN)NC(=O)[C@H](CC(C)C)NC(=O)[C@H](CC(C)C)NC(=O)CN)C(=O)N[C@@H](CCCCN)C(=O)N[C@H](C(=O)N[C@@H](CC(C)C)C(=O)N[C@@H](CC(C)C)C(N)=O)[C@@H](C)O [ANOPLIN] (H-GLLKRIKTLL-NH2) has what selectivity ratio?
6.73

---

# Tested on: Bacteria
# METHOD DESCRIPTION: Antibacterial activity against Gram-positive bacteria incubated for 18 hrs by CLSI based broth dilution method
# Assay type: functional
Where a SMILES comes first, the peptide text is derived from it. Bridges are numbered along the chain shown (N, C = ends). [ ]: non-standard residue; d: D form. The star is where a group is joined. X1 = CC[C@H](C)CCCCC(=O)*; Dab = NCC[C@H](N)C(=O)O
READOUT TYPE: MIC (µM)
Report only the number, with the unit µM understood.

Below, each entry is followed by its recorded MIC result.
COMPOUND: CC(C)C[C@H](NC(=O)CN)C(=O)N[C@@H](Cc1c[nH]c2ccccc12)C(=O)N[C@@H](CCCCN)C(=O)N[C@@H](CCCNC(=N)N)C(=O)N[C@@H](Cc1c[nH]c2ccccc12)C(=O)N[C@@H](CCCCN)C(=O)N[C@@H](CCCCN)C(=O)N[C@@H](Cc1ccccc1)C(=O)N[C@@H](Cc1c[nH]c2ccccc12)C(N)=O (H-GLWKRWKKFW-NH2)
READOUT TYPE: MIC
UOM: µM
EXPERIMENTAL VALUE: 13.5
--
COMPOUND: CC[C@H](C)CCCCC(=O)N[C@@H](CCN)C(=O)N[C@H](C(=O)N[C@@H](CCN)C(=O)N[C@H]1CCNC(=O)[C@H]([C@@H](C)O)NC(=O)[C@H](CCN)NC(=O)[C@H](CCN)NC(=O)[C@H](CC(C)C)NC(=O)[C@@H](Cc2ccccc2)NC(=O)[C@H](CCN)NC1=O)[C@@H](C)O (X1-[Dab]T[Dab][Dab][Dab][dF]L[Dab][Dab]T; lactam 4-C)
READOUT TYPE: MIC
UOM: µM
EXPERIMENTAL VALUE: 26.9
--
COMPOUND: CC[C@H](C)[C@H](NC(=O)[C@H](CCCNC(=N)N)NC(=O)[C@H](CCCCN)NC(=O)[C@H](CC(C)C)NC(=O)[C@H](CC(C)C)NC(=O)CN)C(=O)N[C@@H](CCCCN)C(=O)N[C@H](C(=O)N[C@@H](CC(C)C)C(=O)N[C@@H](CC(C)C)C(N)=O)[C@@H](C)O [ANOPLIN] (H-GLLKRIKTLL-NH2)
READOUT TYPE: MIC
UOM: µM
EXPERIMENTAL VALUE: 64

Shifting focus to the compound that follows.
Please tell me: MIC of CC[C@H](C)[C@H](NC(=O)[C@H](CCCNC(=N)N)NC(=O)[C@H](CCCCN)NC(=O)[C@H](Cc1ccccc1)NC(=O)[C@H](Cc1c[nH]c2ccccc12)NC(=O)[C@@H](N)CCCCN)C(=O)N[C@@H](CCCCN)C(=O)N[C@H](C(=O)N[C@@H](Cc1ccccc1)C(=O)N[C@@H](Cc1c[nH]c2ccccc12)C(N)=O)[C@@H](C)O (H-KWFKRIKTFW-NH2) , system Bacteria?
38.1
